Target: T1, PPR2.0 t23 (synthetic)
T1 chain: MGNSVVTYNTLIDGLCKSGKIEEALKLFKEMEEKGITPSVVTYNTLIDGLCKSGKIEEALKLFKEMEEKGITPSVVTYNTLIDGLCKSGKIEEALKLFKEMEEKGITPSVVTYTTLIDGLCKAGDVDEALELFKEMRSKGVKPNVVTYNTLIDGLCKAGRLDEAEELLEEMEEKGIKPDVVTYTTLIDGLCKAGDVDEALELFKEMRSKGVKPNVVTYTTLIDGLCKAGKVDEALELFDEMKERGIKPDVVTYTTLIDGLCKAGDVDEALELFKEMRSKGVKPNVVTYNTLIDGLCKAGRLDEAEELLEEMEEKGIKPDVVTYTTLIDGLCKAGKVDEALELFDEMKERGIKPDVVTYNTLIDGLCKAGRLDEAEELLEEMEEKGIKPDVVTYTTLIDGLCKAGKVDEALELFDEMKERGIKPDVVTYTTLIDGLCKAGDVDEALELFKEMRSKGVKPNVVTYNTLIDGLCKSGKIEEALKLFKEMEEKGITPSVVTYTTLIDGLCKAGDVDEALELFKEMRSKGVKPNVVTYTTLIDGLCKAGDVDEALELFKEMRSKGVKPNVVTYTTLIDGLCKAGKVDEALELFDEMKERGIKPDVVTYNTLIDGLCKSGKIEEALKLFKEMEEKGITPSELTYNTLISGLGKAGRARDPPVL
Assay: EMSA; 20 mM Tris-HCl pH 8.0, 150 mM NaCl, 0.5% NP-40, 1 mM DTT, 1 mM EDTA; 20 nM RNA
Conditions: tags: N-terminal SBP, C-terminal His6, kept; label: biotin
Value type: Kd (nM)

In [3]: df
Out[3]:
                                     binder  readout_value
0  GACAUGCCCCAUAGAUGUGACAAGCGACUG (ssRNA) [Probe_t23]           10.4
